Where do the numbers come from? From PubChem BioAssay (EPA / NIEHS).

Read-out: Thyroid Hormone Responsive (THRSP), THRSP (gene 7069)
TEST_DESCRIPTION: LTEA_HepaRG_THRSP: Life Technologies and Expression Analysis (LTEA) Assay for Thyroid Hormone Responsive (THRSP) using HepaRG (AID 2283536)
PROTOCOL_CONDITIONS: mRNA level, 48 h; actives raise or lower the signal
Description: LTEA_HepaRG is a cell based, multiplexed-readout assay that uses HepaRG, a human liver cell line, with measurements taken at 48 hours after chemical dosing on a 96-well plate.LTEA_HepaRG_THRSP is one of 102 assay component(s) measured in the LTEA HepaRG cell culture assay. It is a marker of NR mediated metabolism.Data from the assay component LTEA_HepaRG_THRSP was analyzed into 1 endpoint. […]
Activity calls are given as the source filed them. Rule for the calls: active = hit-call score of the fitted dose curve at least 0.9, where 1 is the maximum; inactive = score below 0.9.
Parameter call: string, one of active, inactive

Known results for compounds:
CCCCCOC(=O)COc1cc(N2C(=O)C3=C(CCCC3)C2=O)c(F)cc1Cl = inactive
CCCCOCCOCCOCc1cc2c(cc1CCC)OCO2 = active
O=C(c1ccc(O)cc1O)c1ccc(O)cc1O = inactive
COC(=O)c1ccccc1C(=O)O = inactive
CCOC(=O)C(C)Oc1ccc(Oc2nc3ccc(Cl)cc3o2)cc1 (stereo unspecified) = inactive

Status in this test for C#C[C@]1(O)CC[C@H]2[C@@H]3CCC4=CC(=O)CC[C@@H]4[C@H]3CC[C@@]21CC ? active

====

Read-out: sulfotransferase 2A1 (SULT2A1), SULT2A1 (gene 6822)
TEST_DESCRIPTION: LTEA_HepaRG_SULT2A1: Life Technologies and Expression Analysis (LTEA) Assay for sulfotransferase 2A1 (SULT2A1) using HepaRG (AID 2283531)
PROTOCOL_CONDITIONS: mRNA level, 48 h; actives raise or lower the signal
Activity calls are given as the source filed them. Rule for the calls: active = hit-call score of the fitted dose curve at least 0.9, where 1 is the maximum; inactive = score below 0.9.
Respond using exactly one of the listed classes: active, inactive

CCOC(=O)COc1cc(-n2ncc(C(F)(F)F)c(C)c2=O)c(F)cc1Cl = inactive
CCOC(=O)NCCOc1ccc(Oc2ccccc2)cc1 = active
Cc1nn(C)c(Oc2ccccc2)c1C=NOCc1ccc(C(=O)OC(C)(C)C)cc1 = active
C[C@]12C[C@H](O)[C@H]3[C@@H](CCC4=CC(=O)CC[C@@]43C)[C@@H]1CC[C@@H]2C(=O)CO = active

Can you look up the reported call for CCCN(CCC)C(=O)SCC for me? inactive

Param item: CC(C)CCCCCCc1ccc(O)cc1 inactive

====

Read-out: Macrophage colony-stimulating factor (MCSF), CSF1 (gene 1435)
TEST_DESCRIPTION: BSK_LPS_MCSF: BioMAP Diversity Plus: LPS Assay for Macrophage colony-stimulating factor (MCSF) Biomarker Activity (AID 2283083)
PROTOCOL_CONDITIONS: primary human HUVEC with PBMC; actives raise or lower the signal
Activity calls are given as the source filed them. Rule for the calls: active = hit-call score of the fitted dose curve at least 0.9, where 1 is the maximum; inactive = score below 0.9.
Classes to choose from: active, inactive

Take a look at these entries with their results.
S=C([S-])NCCNC(=S)[S-].[Mn+2] = active
CCC(C)OC(=O)N1CCCCC1CCO (stereo unspecified) = inactive
CCCN(CCC)C(=O)SCC = inactive
CCOC(=O)[C@H](C)Oc1ccc(Oc2nc3ccc(Cl)cc3o2)cc1 = inactive
CCNc1nc(N)nc(Cl)n1 = inactive
C[C@]12CC[C@@H]3c4ccc(O)cc4C[C@@H](CCCCCCCCCS(=O)CCCC(F)(F)C(F)(F)F)[C@H]3[C@@H]1CC[C@@H]2O (stereo partly specified) = inactive
O=C(c1ccccc1)C1CCCCC1 = inactive
C#CCOC(=O)[C@@H](C)Oc1ccc(Oc2ncc(Cl)cc2F)cc1 = inactive

Outcome? CCCOC(=O)c1ccc(C(=O)OCCC)nc1 inactive

Query c1ccc2[nH]c(-c3cscn3)nc2c1 next inactive

Moving on to O=C(O)c1ccccc1 inactive

Proceed to CCN(CC)C(=O)c1cccc(C)c1 inactive

Now try COC(=O)c1ccccc1S(=O)(=O)NC(=O)Nc1nc(OC(F)F)cc(OC(F)F)n1 . inactive

Next compound: Oc1ccc(C(c2ccc(O)cc2)C(Cl)(Cl)Cl)cc1 active
